Source listed as patent US5478946A.

biological target: Type I NOS (rat brain cytosol) (Rattus norvegicus)
I'd appreciate it if you could supply IC50 values for the items below.
Lab book: enter the figure in µM, no units written.

q: Output IC50 of CNC(=N)NC/C(C)=C/[C@H](N)CO
a: 20

q: Output IC50 of CCNC(=N)NC/C=C/[C@H](N)CO
a: 30

q: Output IC50 of N=C(N)NC/C(=C/[C@H](N)CO)Cc1ccccc1
a: 40

###

I'd appreciate it if you could supply inhibition at 100 µM values for the items below.
Biological target: Type II NOS (RAW macrophage cell cytosol) (Mus musculus, UniProt P29477)
Construct: cytosolic preparations from RAW 264.7 cells; endogenous in cells; host or cells: RAW 264.7 cells, LPS-induced for 16 hours
Assay: [3H]-Arginine to [3H]-Citrulline conversion, RAW cell cytosol (Type II NOS)
Format: biochemical, murine
Details: 100 μM, LPS induced, read-out: Percent Inhibition of [3H]-Citrulline Formation, RAW Cell Cytosol
Text: The enzyme NO synthase produces EDRF/NO and citrulline from L-arginine (Bredt and Snyder, Proc. Nat'l. Acad. Sci. USA, 1989, 87: 682-5). The enzymatic generation of EDRF/NO is monitored by measuring the conversion of [^3 H]-L-arginine to [^3 H]-L-citrulline. An inhibitor of this specific enzymatic reaction lowers the conversion rate and, thus, the amount of [^3 H]-L-citrulline produced. Likewise, a compound acting as a substrate would compete with L-arginine and thereby lower the conversion rate. […]
Lab book: enter the figure in %, no units written.

q: Output inhibition at 100 µM of C/C(=C\[C@H]1COC(C)(C)N1C(=O)OC(C)(C)C)CNC(=N)N[N+](=O)[O-]
a: 0

q: Output inhibition at 100 µM of CC(C)(C)OC(=O)N1[C@@H](/C=C/CNC(=N)N[N+](=O)[O-])COC1(C)C
a: 0

q: Output inhibition at 100 µM of C/C(=C\[C@H]1COC(C)(C)N1C(=O)OC(C)(C)C)CNC(=N)N
a: 45

q: Output inhibition at 100 µM of N=C(N)NC/C=C/[C@H](N)CO
a: 50

q: Output inhibition at 100 µM of CNC(=N)NC/C(C)=C/[C@H](N)CO
a: 97

q: Output inhibition at 100 µM of CNC(=N)NC/C=C/[C@H](N)CO
a: 43

q: Output inhibition at 100 µM of CCNC(=N)NC/C=C/[C@H]1COC(C)(C)N1C(=O)OC(C)(C)C
a: 41

q: Output inhibition at 100 µM of CC(C)(C)OC(=O)N1[C@@H](/C=C(/CNC(=N)N)Cc2ccccc2)COC1(C)C
a: 20

q: Output inhibition at 100 µM of CNC(=N)NC/C=C/[C@@H]1COC(C)(C)N1C(=O)OC(C)(C)C
a: 9

q: Output inhibition at 100 µM of CC(C)(C)OC(=O)N1[C@@H](/C=C/CNC(=N)N)COC1(C)C
a: 68

q: Output inhibition at 100 µM of N=C(NO)NC/C=C/[C@H](N)CO
a: 13

q: Output inhibition at 100 µM of CC(C)(C)OC(=O)N1[C@H](/C=C/CNC(=N)N)COC1(C)C
a: 97

q: Output inhibition at 100 µM of C/C(=C\[C@H](N)CO)CNC(=N)N
a: 94

q: Output inhibition at 100 µM of C/C(=C\[C@H](N)CO)CNC(=N)N[N+](=O)[O-]
a: 66

q: Output inhibition at 100 µM of CNC(=N)NC/C=C/[C@@H](N)CO
a: 27

q: Output inhibition at 100 µM of CNC(=N)NC/C=C/[C@H]1COC(C)(C)N1C(=O)OC(C)(C)C
a: 47
